Catalogue of relative viability readings, one per entry.
# Test system: UMB1949 (TSC2-deficient);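 also: renal angiomyolipoma cell lines screened in 384-well plates, viability normalized per plate to DMSO-treated cells, each plate carrying 50 nM rapamycin and 1 µM staurosporine controls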
# Run description: relative viability vs DMSO (fraction); higher = less cytotoxic
# Experimental setup: 0.064 nM; serum: 0.1% FBS; 72 h

Compound	relative viability
CO[C@@H](C(=O)N1Cc2[nH]nc(NC(=O)c3ccc(N4CCN(C)CC4)cc3)c2C1)c1ccccc1	0.879
CO[C@H]1C[C@@H]2CC[C@@H](C)[C@@](O)(O2)C(=O)C(=O)N2CCCC[C@H]2C(=O)O[C@H]([C@H](C)C[C@@H]2CC[C@@H](OC(=O)C(C)(CO)CO)[C@H](OC)C2)CC(=O)[C@H](C)/C=C(\C)[C@@H](O)[C@@H](OC)C(=O)[C@H](C)C[C@H](C)/C=C/C=C/C=C/1C [Temsirolimus]	0.874
O=c1cc(N2CCOCC2)oc2c(-c3cccc4c3sc3ccccc34)cccc12 [NU7441]	0.893
CC[C@@]1(O)C(=O)OCc2c1cc1n(c2=O)Cc2cc3ccccc3nc2-1 [Camptothecin]	0.913
